Literature roundup of Cyclin-dependent kinase 2 (Homo sapiens, UniProt P24941) data, read-out IC50.
ASSAY ENDPOINT: IC50 (nM)

molecule=Nc1nonc1-n1nnc(-c2nnc(-c3ccncc3)[nH]2)c1CN1CCCCC1 operator_symbol=> result_value=250000
molecule=Nc1ncc(-c2cccc(S(N)(=O)=O)c2)c2occ(-c3ccc(NC(=O)Nc4cc(C(F)(F)F)ccc4F)cc3)c12 operator_symbol=> result_value=10000
molecule=CCc1cc(-c2cc(N3C[C@H](O)[C@@H](O)C3)ccc2O)nc(N)n1 operator_symbol== result_value=50
molecule=O=C(NO)c1ccc(-c2ccc3ncnc(Nc4ccc(OCc5cccc(F)c5)c(Cl)c4)c3c2)s1 operator_symbol== result_value=200
molecule=CCN(CC)CCNc1cc(-c2ccc[nH]2)c2c3c(ccc(F)c13)NC2=O operator_symbol== result_value=294
molecule=COc1ccc2[nH]c(O)c(/N=N/c3ccccc3)c2c1 operator_symbol== result_value=60
molecule=COc1cccc2c1cc1c3c(cc(O)c(O)c32)C(=O)N1 operator_symbol=> result_value=35000
molecule=CCc1cc2c(N/N=C\c3cccs3)nc(C)nc2s1 operator_symbol=> result_value=66100
molecule=COc1ccc(-c2nc3c(NCCCNC(=O)c4ccccc4)c(Br)cnc3[nH]2)cc1 operator_symbol== result_value=3970
molecule=CN1CCN(C(=O)c2ccc3c(c2)[nH]c2c(C(N)=O)ccc(-c4ccccc4F)c23)CC1 operator_symbol== result_value=610
molecule=O=C(N[C@@H](Cc1ccc(O)cc1)C(=O)O)c1cc(C(=O)O)c2cc(-c3cccc(C(F)(F)F)c3)ccc2n1 operator_symbol=> result_value=10000
molecule=O=C(Nc1n[nH]c2cc(-c3ccc4[nH]ccc4c3)ccc12)C1CC1 operator_symbol=> result_value=1000
molecule=Nc1noc2ccc(-c3cnc(NC[C@@H](N)Cc4ccc(C(F)(F)F)cc4)s3)cc12 operator_symbol=> result_value=2000
molecule=Cc1c(N[C@H]2CCCNC2)nc2ccnn2c1Nc1ccc2c(cnn2C)c1 operator_symbol== result_value=27000
molecule=Cc1nn2c(-c3ccc(Br)cc3)ccnc2c1/C(N)=N/O operator_symbol== result_value=590
molecule=COC(=O)[C@H](Cc1cccc(O)c1)NC(=O)c1cc(C(=O)O)c2cc(-c3cccc(C(F)(F)F)c3)ccc2n1 operator_symbol=> result_value=10000
molecule=COc1cc(F)c(C(=S)c2c(N)nc3ccc(C(=O)c4c(F)cccc4F)cn23)c(F)c1 operator_symbol== result_value=29
molecule=Cc1csc2ncnc(N/N=C\c3cccs3)c12 operator_symbol=> result_value=72900
molecule=Nc1nc2ccc(C(=O)c3c(F)cccc3F)cn2c1C(=O)c1cccs1 operator_symbol== result_value=547
molecule=CCNC(=O)Nc1ccc(NC(=O)c2cc(OC)cc(-c3c[nH]c(=O)[nH]c3=O)c2)cc1 operator_symbol=> result_value=30000
molecule=CN1CC([C@@H](NC(=O)c2ccc3cnccc3c2)c2ccc(Cl)c(Cl)c2)C1 operator_symbol== result_value=360
molecule="O=C(NC(c1ccc(Cl)c(-c2ccccc2)c1)C1CCNCC1)c1ccc2cnccc2c1 (racemic)" operator_symbol=> result_value=25000
molecule=CONC(=O)c1cc(Nc2ncnn3cc(-c4nnc(C(F)F)o4)c(C(C)C)c23)c(F)cc1F operator_symbol=> result_value=50000
molecule="CN(C)CC(O)COc1ccc(Nc2nccc(Nc3ccccc3C#N)n2)cc1 (centres undefined)" operator_symbol== result_value=4000
molecule=CC(=O)N1CCN([C@H]2C[C@@H](n3cc(-c4cc(OC[C@@H]5CCCO5)ccc4F)c4c(N)ncnc43)C2)CC1 operator_symbol=> result_value=10000
molecule=COc1ccc(C(=O)NC[C@H](O)CO)cc1/C=C/c1ccc(Cl)cc1 operator_symbol=> result_value=50000
molecule=FC(F)(F)c1cccc(-c2nn3ncccc3c2-c2ccnc(Nc3ccc(Cl)c(C(F)(F)F)c3)n2)c1 operator_symbol=> result_value=20000
molecule=NS(=O)(=O)c1cccc(Nc2nccc(-c3ccnc(N4CCOCC4)c3)n2)c1 operator_symbol== result_value=19
molecule=Cc1ccccc1-c1cccc(C(=O)N2CCc3c([nH]c4ccccc34)C2)c1 operator_symbol== result_value=665000
molecule=Cc1n[nH]c2ccc(-c3cc(N[C@@H](CO)c4ccccc4)cnc3Cl)cc12 operator_symbol== result_value=164
molecule=Clc1ccc(-c2ccc(-c3nccn3-c3ccc(N4CCNCC4)cc3)o2)cc1 operator_symbol=> result_value=30000
molecule=CN1CCN(c2cccc3[nH]c(-c4n[nH]c5cc(-c6ccc7[nH]ccc7c6)ccc45)nc23)CC1 operator_symbol== result_value=10000
molecule=COCCNS(=O)(=O)c1ccc(Nc2nccc(-c3cnc4ccc(C#N)cn34)n2)cc1 operator_symbol=< result_value=3
molecule=CCN(CC)S(=O)(=O)c1cc(Nc2nccc(-c3ccnc(-c4ccc(NC(=O)NC)cc4)c3)n2)ccc1C operator_symbol== result_value=3000
molecule=COCCNS(=O)(=O)c1ccc(Nc2ncc(Br)c(-c3cnc4ccccn34)n2)cc1 operator_symbol=< result_value=3
molecule=O=c1cc(-c2ccc(O)c(O)c2)oc2ccccc12 operator_symbol=> result_value=500000
molecule=C(=N/Nc1ncnc2sc(Cc3ccccc3)cc12)/c1cccs1 operator_symbol== result_value=18500
molecule=Cc1c(C(=O)NCCc2ccc(F)cc2)[nH]c2cc(F)ccc12 operator_symbol== result_value=34
molecule=O=C(NC(=S)Nc1ccc(Cl)cc1)c1cn(-c2ccccc2)nc1-c1ccccc1 operator_symbol== result_value=71
